Molecular target: Adenosine A2 receptor (Rattus norvegicus) (UniProt P29276+P30543)
Test: Percent displacement from adenosine A2 receptor at 10e-7 M in rat striatal membrane in vitro.
Format: cell membranes
Details: Striatum
recorded endpoint: Displacement (%)
Use % as the unit, but write only the number.

{"columns": ["compound", "tested target", "recorded endpoint", "recorded number"],
 "data": [
  ["O=C(NC1CC1)[C@H]1O[C@@H](n2cnc3c(NCCc4cn(Cc5cccc([N+](=O)[O-])c5)c5ccccc45)ncnc32)[C@H](O)[C@@H]1O", "Adenosine A2 receptor (Rattus norvegicus) (UniProt P29276+P30543)", "Displacement", 46]
]}

# input Quick one: Displacement for C#CCn1cc(CCNc2ncnc3c2ncn3C2O[C@H](C(=O)NC3CC3)[C@@H](O)[C@H]2O)c2ccccc21 (stereo not given in full) ?
# output 25

# input Now consider CC(Cc1cn(C2CCCC2)c2ccccc12)Nc1ncnc2c1ncn2C1O[C@H](C(=O)NC2CC2)[C@@H](O)[C@H]1O (stereo not given in full) .
# output 21

# input Now consider C=CCn1cc(CCNc2ncnc3c2ncn3C2O[C@H](C(=O)NC3CC3)[C@@H](O)[C@H]2O)c2ccccc21 (stereo not given in full) .
# output 17

# input Now consider OC[C@H]1OC(n2cnc3c(NCCc4cn(Cc5ccccc5)c5ccccc45)ncnc32)[C@H](O)[C@@H]1O (stereo not given in full) .
# output 30

###

Biological target: Adenosine A2 receptor (Rattus norvegicus, UniProt P29276+P30543)
Test: Binding affinity for adenosine A2 receptor in vitro using rat striatal membrane.
Assay type: cell membranes
Ki values for the molecules below.
Use nM as the unit, but write only the number.

# input Given the entry `Cc1ccc(C)c(Cn2cc(CCNc3ncnc4c3ncn4[C@@H]3O[C@H](C(=O)NC4CC4)[C@@H](O)[C@H]3O)c3cc(Cl)ccc32)c1` , what Ki was observed with Adenosine A2 receptor (Rattus norvegicus, UniProt P29276+P30543)?
# output 660

# input Now consider O=C(NC1CC1)[C@H]1OC(n2cnc3c(NCCc4cn(CCN5CCCCC5)c5ccccc45)ncnc32)[C@H](O)[C@@H]1O (some centres undefined) .
# output 120

# input Now consider O=C(NC1CC1)[C@H]1OC(n2cnc3c(NCCc4cn(CC5CC5)c5ccccc45)ncnc32)[C@H](O)[C@@H]1O (some centres undefined) .
# output 190

# input Now consider O=C(NC1CC1)[C@H]1OC(n2cnc3c(NCCc4cn(Cc5ccc(Cl)c(Cl)c5)c5ccccc45)ncnc32)[C@H](O)[C@@H]1O (some centres undefined) .
# output 1400

# input Now consider `Cc1ccc(C)c(Cn2cc(CCNc3ncnc4c3ncn4[C@@H]3O[C@H](C(N)=O)[C@@H](O)[C@H]3O)c3ccccc32)c1` .
# output 2600

# input Now consider `CC(C)n1cc(CCNc2ncnc3c2ncn3[C@@H]2O[C@H](C(=O)NC3CC3)[C@@H](O)[C@H]2O)c2ccccc21` .
# output 390

# input Now consider `Cc1ccc(C)c(Cn2cc(CCNc3ncnc4c3ncn4[C@@H]3O[C@H](C(=O)NC4CC4)[C@@H](O)[C@H]3O)c3cc(C)ccc32)c1` .
# output 890

# input Now consider `OC[C@H]1O[C@@H](n2cnc3c(NCCc4cn(Cc5ccc(Cl)cc5)c5ccccc45)ncnc32)[C@H](O)[C@@H]1O` .
# output 140

# input Now consider `O=C(NC1CC1)[C@H]1O[C@@H](n2cnc3c(NCCc4cn(CCN5CCCC5)c5ccccc45)ncnc32)[C@H](O)[C@@H]1O` .
# output 58

# input Now consider O=C(NC1CC1)[C@H]1OC(n2cnc3c(NCCc4cn(Cc5ccccc5)c5ccccc45)ncnc32)[C@H](O)[C@@H]1O (some centres undefined) .
# output 270

# input Now consider C=CCn1cc(CCNc2ncnc3c2ncn3C2O[C@H](C(=O)NC3CC3)[C@@H](O)[C@H]2O)c2ccccc21 (some centres undefined) .
# output 280

# input Now consider Cc1ccc(C)c(Cn2cc(CC(C)Nc3ncnc4c3ncn4C3O[C@H](C(=O)NC4CC4)[C@@H](O)[C@H]3O)c3ccccc32)c1 (some centres undefined) .
# output 2200

# input Now consider Cc1ccc(C)c(Cn2cc(CCNc3ncnc4c3ncn4C3O[C@H](C(=O)NC4CC4)[C@@H](O)[C@H]3O)c3ccccc32)c1 (some centres undefined) .
# output 670

# input Now consider `O=C(NC1CC1)[C@H]1O[C@@H](n2cnc3c(NCCc4cn(Cc5cccc6ccccc56)c5ccccc45)ncnc32)[C@H](O)[C@@H]1O` .
# output 1400

# input Now consider `O=C(NC1CC1)[C@H]1O[C@@H](n2cnc3c(NCCc4c[nH]c5ccccc45)ncnc32)[C@H](O)[C@@H]1O` .
# output 560

# input Now consider `Cc1c(CCNc2ncnc3c2ncn3[C@@H]2O[C@H](C(=O)NC3CC3)[C@@H](O)[C@H]2O)c2ccccc2n1C1CCCC1` .
# output 2180

# input Now consider O=C(NC1CC1)[C@H]1OC(n2cnc3c(NCCc4cn(Cc5ccc(Cl)cc5)c5ccccc45)ncnc32)[C@H](O)[C@@H]1O (some centres undefined) .
# output 320

# input Now consider O=C(NC1CC1)[C@H]1OC(n2cnc3c(NCCc4cn(Cc5ccccn5)c5ccccc45)ncnc32)[C@H](O)[C@@H]1O (some centres undefined) .
# output 390

###

Target: Adenosine receptor A1 (Rattus norvegicus)
Test: Percent displacement from adenosine A1 receptor at 10e-5 M in rat brain membrane in vitro.
Type: cell membranes
Displacement values for the compounds below.
Use % as the unit, but write only the number.

Some compounds with recorded Displacement:
{"columns": ["compound", "measurement unit", "Displacement"],
 "data": [
  ["Cc1ccccc1Cn1cc(CCNc2ncnc3c2ncn3C2O[C@H](C(=O)NC3CC3)[C@@H](O)[C@H]2O)c2ccccc21 (stereo partly drawn)", "%", 98],
  ["O=C(NC1CC1)[C@H]1O[C@@H](n2cnc3c(NCCc4cn(Cc5cccc6ccccc56)c5ccccc45)ncnc32)[C@H](O)[C@@H]1O", "%", 93],
  ["CC(Cc1cn(C2CCCC2)c2ccccc12)Nc1ncnc2c1ncn2C1O[C@H](C(=O)NC2CC2)[C@@H](O)[C@H]1O (stereo partly drawn)", "%", 96],
  ["OC[C@H]1OC(n2cnc3c(NCCc4cn(Cc5ccccc5)c5ccccc45)ncnc32)[C@H](O)[C@@H]1O (stereo partly drawn)", "%", 100],
  ["O=C(NC1CC1)[C@H]1O[C@@H](n2cnc3c(NCCc4cn(CCN5CCCC5)c5ccccc45)ncnc32)[C@H](O)[C@@H]1O", "%", 100]
]}

# input Quick one: Displacement for COc1ccccc1Cn1cc(CCNc2ncnc3c2ncn3C2O[C@H](C(=O)NC3CC3)[C@@H](O)[C@H]2O)c2ccccc21 (stereo partly drawn) ?
# output 100

# input Now consider O=C(NC1CC1)[C@H]1OC(n2cnc3c(NCCc4cn(CC5CC5)c5ccccc45)ncnc32)[C@H](O)[C@@H]1O (stereo partly drawn) .
# output 97

# input Now consider O=C(NC1CC1)[C@H]1OC(n2cnc3c(NCCc4cn(CCN5CCCCC5)c5ccccc45)ncnc32)[C@H](O)[C@@H]1O (stereo partly drawn) .
# output 99

# input Now consider `O=C(NC1CC1)[C@H]1O[C@@H](n2cnc3c(NCCc4cn(Cc5cccnc5)c5ccccc45)ncnc32)[C@H](O)[C@@H]1O` .
# output 97

# input Now consider O=C(NC1CC1)[C@H]1OC(n2cnc3c(NCCc4cn(CCN5CCOCC5)c5ccccc45)ncnc32)[C@H](O)[C@@H]1O (stereo partly drawn) .
# output 100

# input Now consider C#CCn1cc(CCNc2ncnc3c2ncn3C2O[C@H](C(=O)NC3CC3)[C@@H](O)[C@H]2O)c2ccccc21 (stereo partly drawn) .
# output 95

# input Now consider `O=C(NC1CC1)[C@H]1O[C@@H](n2cnc3c(NCCc4c[nH]c5ccccc45)ncnc32)[C@H](O)[C@@H]1O` .
# output 100

# input Now consider Cc1ccc(C)c(Cn2cc(CC(C)Nc3ncnc4c3ncn4C3O[C@H](C(=O)NC4CC4)[C@@H](O)[C@H]3O)c3ccccc32)c1 (stereo partly drawn) .
# output 96

# input Now consider Cc1ccc(C)c(Cn2cc(C(C)CNc3ncnc4c3ncn4[C@@H]3O[C@H](C(=O)NC4CC4)[C@@H](O)[C@H]3O)c3ccccc32)c1 (stereo partly drawn) .
# output 97

# input Now consider O=C(NC1CC1)[C@H]1OC(n2cnc3c(NCCc4cn(Cc5ccc(Cl)cc5)c5ccccc45)ncnc32)[C@H](O)[C@@H]1O (stereo partly drawn) .
# output 98

# input Now consider Cc1ccc(C)c(Cn2c(-c3ccccc3)c(CCNc3ncnc4c3ncn4C3O[C@H](C(=O)NC4CC4)[C@@H](O)[C@H]3O)c3ccccc32)c1 (stereo partly drawn) .
# output 31

# input Now consider Cc1ccc(Cn2cc(CCNc3ncnc4c3ncn4C3O[C@H](C(=O)NC4CC4)[C@@H](O)[C@H]3O)c3ccccc32)cc1 (stereo partly drawn) .
# output 97

# input Now consider CN(C)CCn1cc(CCNc2ncnc3c2ncn3C2O[C@H](C(=O)NC3CC3)[C@@H](O)[C@H]2O)c2ccccc21 (stereo partly drawn) .
# output 100
